EXPERIMENT DESCRIPTION: Log p measurement by shake flask method
Type: physicochemical
REPORTED CONDITIONS: octanol / PBS (pH =7.4), triplicate
logP for assorted compounds
MEASURED PROPERTY: logP

- SUBSTANCE SMILES: "CCN(CC)CCOc1ccc(C(=O)/C=C/c2cccc(Cl)c2)cc1"
  MEASURED PROPERTY: "logP"
  RECORDED VALUE: 1.62
- SUBSTANCE SMILES: "CCN(CC)CCOc1ccc(C(=O)/C=C/c2ccc(Cl)cc2)cc1"
  MEASURED PROPERTY: "logP"
  RECORDED VALUE: 1.69
- SUBSTANCE SMILES: "CN(C)CCOc1ccc(C(=O)/C=C/c2ccccc2Cl)cc1"
  MEASURED PROPERTY: "logP"
  RECORDED VALUE: 1.75
- SUBSTANCE SMILES: "O=C(/C=C/c1ccc(Cl)cc1)c1ccc(OCCN2CCCC2)cc1"
  MEASURED PROPERTY: "logP"
  RECORDED VALUE: 1.83
- SUBSTANCE SMILES: "CN(C)CCOc1ccc(C(=O)/C=C/c2cccc(Cl)c2)cc1"
  MEASURED PROPERTY: "logP"
  RECORDED VALUE: 1.83
- SUBSTANCE SMILES: "O=C(/C=C/c1ccc(Cl)cc1)c1ccc(OCCN2CCCCC2)cc1"
  MEASURED PROPERTY: "logP"
  RECORDED VALUE: 1.79
- SUBSTANCE SMILES: "CN(C)CCOc1ccc(C(=O)/C=C/c2ccc(Cl)cc2)cc1"
  MEASURED PROPERTY: "logP"
  RECORDED VALUE: 1.61
- SUBSTANCE SMILES: "O=C(/C=C/c1ccccc1Cl)c1ccc(OCCN2CCCC2)cc1"
  MEASURED PROPERTY: "logP"
  RECORDED VALUE: 1.85
- SUBSTANCE SMILES: "O=C(/C=C/c1cccc(Cl)c1)c1ccc(OCCN2CCCCC2)cc1"
  MEASURED PROPERTY: "logP"
  RECORDED VALUE: 1.72

###

ASSAY TARGET: AChE (Rattus norvegicus)
Construct: The brain and serum of Sprague–Dawley rat was used as the resource of AChE and BuChE, respectively; from tissue; host or cells: Sprague-Dawley rat brain
EXPERIMENT DESCRIPTION: biochemical
Format: biochemical
REPORTED CONDITIONS: ratio IC50 (BuChE)/IC50 (AChE)
MEASURED PROPERTY: Selectivity for AChE, IC50 (BuChE)/IC50 (AChE)

- COMPOUND: "O=C(/C=C/c1cccc(Cl)c1)c1ccc(OCCN2CCCCC2)cc1 [Compound 4h]"
  ASSAY TARGET: "AChE (Rattus norvegicus)"
  RECORDED VALUE: 18.7
- COMPOUND: "O=C(/C=C/c1ccccc1Cl)c1ccc(OCCN2CCCCC2)cc1 [Compound 4g]"
  ASSAY TARGET: "AChE (Rattus norvegicus)"
  RECORDED VALUE: 19.8
- COMPOUND: "CC(=O)N1N=C(c2ccc(OCCN3CCCC3)cc2)CC1c1cccc(Cl)c1 (stereo not shown) [Compound 5c]"
  ASSAY TARGET: "AChE (Rattus norvegicus)"
  RECORDED VALUE: 11.5
- COMPOUND: "O=C(/C=C/c1ccccc1Cl)c1ccc(OCCN2CCCC2)cc1 [Compound 4j]"
  ASSAY TARGET: "AChE (Rattus norvegicus)"
  RECORDED VALUE: 39.6
- COMPOUND: "CCN(CC)CCOc1ccc(C(=O)/C=C/c2cccc(Cl)c2)cc1 [Compound 4e]"
  ASSAY TARGET: "AChE (Rattus norvegicus)"
  RECORDED VALUE: 13.8
- COMPOUND: "O=C(/C=C/c1cccc(Cl)c1)c1ccc(OCCN2CCCC2)cc1 [Compound 4k]"
  ASSAY TARGET: "AChE (Rattus norvegicus)"
  RECORDED VALUE: 110.9
- COMPOUND: "CC(=O)N1N=C(c2ccc(OCCN3CCCC3)cc2)CC1c1ccc(Cl)cc1 (stereo not shown) [Compound 5d]"
  ASSAY TARGET: "AChE (Rattus norvegicus)"
  RECORDED VALUE: 52.96
- COMPOUND: "CC(=O)N1N=C(c2ccc(OCCN3CCCC3)cc2)CC1c1ccccc1Cl (stereo not shown) [Compound 5b]"
  ASSAY TARGET: "AChE (Rattus norvegicus)"
  RECORDED VALUE: 4.74
- COMPOUND: "CC(=O)N1N=C(c2ccc(OCCN3CCCCC3)cc2)CC1c1ccc(Cl)cc1 (stereo not shown) [Compound 5a]"
  ASSAY TARGET: "AChE (Rattus norvegicus)"
  RECORDED VALUE: 16.4
- COMPOUND: "O=C(/C=C/c1ccc(Cl)cc1)c1ccc(OCCN2CCCCC2)cc1 [Compound 4i]"
  ASSAY TARGET: "AChE (Rattus norvegicus)"
  RECORDED VALUE: 125.5

###

ASSAY TARGET: AChE (Rattus norvegicus, UniProt P37136)
Construct: The brain and serum of Sprague–Dawley rat was used as the resource of AChE and BuChE, respectively
Sequence (P37136 32-614): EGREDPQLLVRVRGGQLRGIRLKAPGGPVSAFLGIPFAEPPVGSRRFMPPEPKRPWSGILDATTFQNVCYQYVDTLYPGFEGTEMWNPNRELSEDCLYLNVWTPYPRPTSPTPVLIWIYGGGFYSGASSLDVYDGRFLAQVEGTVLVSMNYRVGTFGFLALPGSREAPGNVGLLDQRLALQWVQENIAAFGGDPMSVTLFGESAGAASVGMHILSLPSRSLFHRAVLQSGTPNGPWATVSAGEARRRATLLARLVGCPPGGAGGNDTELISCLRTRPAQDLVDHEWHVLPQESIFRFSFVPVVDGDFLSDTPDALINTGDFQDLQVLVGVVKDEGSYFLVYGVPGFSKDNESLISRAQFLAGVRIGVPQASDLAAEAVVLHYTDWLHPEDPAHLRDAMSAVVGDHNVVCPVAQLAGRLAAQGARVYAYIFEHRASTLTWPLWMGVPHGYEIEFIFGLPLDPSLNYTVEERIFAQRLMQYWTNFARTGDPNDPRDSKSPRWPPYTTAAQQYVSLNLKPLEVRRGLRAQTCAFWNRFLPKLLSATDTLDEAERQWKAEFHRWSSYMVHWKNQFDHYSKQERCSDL
EXPERIMENT DESCRIPTION: biochemical
REPORTED CONDITIONS: rat brain AChE; means ± SD of three experiments

- COMPOUND: "O=C(/C=C/c1ccc(Cl)cc1)c1ccc(OCCN2CCCCC2)cc1 [Compound 4i]"
  LIMIT OPERATOR: "="
  IC50 [nM]: 910
- COMPOUND: "CC(=O)N1N=C(c2ccc(OCCN3CCCC3)cc2)CC1c1ccccc1Cl (stereo not shown) [Compound 5b]"
  LIMIT OPERATOR: "="
  IC50 [nM]: 6310
- COMPOUND: "CC(=O)N1N=C(c2ccc(OCCN3CCCC3)cc2)CC1c1ccc(Cl)cc1 (stereo not shown) [Compound 5d]"
  LIMIT OPERATOR: "="
  IC50 [nM]: 2040
- COMPOUND: "O=C(/C=C/c1ccccc1Cl)c1ccc(OCCN2CCCC2)cc1 [Compound 4j]"
  LIMIT OPERATOR: "="
  IC50 [nM]: 810
- COMPOUND: "O=C(/C=C/c1cccc(Cl)c1)c1ccc(OCCN2CCCCC2)cc1 [Compound 4h]"
  LIMIT OPERATOR: "="
  IC50 [nM]: 1310
- COMPOUND: "O=C(/C=C/c1ccc(Cl)cc1)c1ccc(OCCN2CCCC2)cc1 [Compound 4l]"
  LIMIT OPERATOR: "="
  IC50 [nM]: 170
- COMPOUND: "CCN(CC)CCOc1ccc(C(=O)/C=C/c2ccc(Cl)cc2)cc1 [Compound 4f]"
  LIMIT OPERATOR: "="
  IC50 [nM]: 3780
- COMPOUND: "O=C(/C=C/c1ccccc1Cl)c1ccc(O)cc1 [Compound 3a, 4'-Hydroxy-2-chlorochalcone]"
  LIMIT OPERATOR: ">"
  IC50 [nM]: 500000
- COMPOUND: "CC(=O)N1N=C(c2ccc(OCCN3CCCC3)cc2)CC1c1cccc(Cl)c1 (stereo not shown) [Compound 5c]"
  LIMIT OPERATOR: "="
  IC50 [nM]: 2410
- COMPOUND: "CC(=O)N1N=C(c2ccc(OCCN3CCCCC3)cc2)CC1c1ccc(Cl)cc1 (stereo not shown) [Compound 5a]"
  LIMIT OPERATOR: "="
  IC50 [nM]: 5940
- COMPOUND: "CN(C)CCOc1ccc(C(=O)/C=C/c2ccc(Cl)cc2)cc1 [Compound 4c]"
  LIMIT OPERATOR: "="
  IC50 [nM]: 1550
- COMPOUND: "CN(C)CCOc1ccc(C(=O)/C=C/c2cccc(Cl)c2)cc1 [Compound 4b]"
  LIMIT OPERATOR: "="
  IC50 [nM]: 3760
- COMPOUND: "O=C(/C=C/c1cccc(Cl)c1)c1ccc(OCCN2CCCC2)cc1 [Compound 4k]"
  LIMIT OPERATOR: "="
  IC50 [nM]: 280
- COMPOUND: "O=C(/C=C/c1ccc(Cl)cc1)c1ccc(O)cc1 [Compound 3c, 4'-Hydroxy-4-chlorochalcone]"
  LIMIT OPERATOR: ">"
  IC50 [nM]: 500000
- COMPOUND: "O=C(/C=C/c1cccc(Cl)c1)c1ccc(O)cc1 [Compound 3b, 4'-Hydroxy-3-chlorochalcone]"
  LIMIT OPERATOR: ">"
  IC50 [nM]: 500000
- COMPOUND: "CCN(CC)CCOc1ccc(C(=O)/C=C/c2ccccc2Cl)cc1 [Compound 4d]"
  LIMIT OPERATOR: "="
  IC50 [nM]: 5420
- COMPOUND: "O=C(/C=C/c1ccccc1Cl)c1ccc(OCCN2CCCCC2)cc1 [Compound 4g]"
  LIMIT OPERATOR: "="
  IC50 [nM]: 1800
- COMPOUND: "CCN(CC)CCOc1ccc(C(=O)/C=C/c2cccc(Cl)c2)cc1 [Compound 4e]"
  LIMIT OPERATOR: "="
  IC50 [nM]: 5830
- COMPOUND: "CN(C)CCOc1ccc(C(=O)/C=C/c2ccccc2Cl)cc1 [Compound 4a]"
  LIMIT OPERATOR: "="
  IC50 [nM]: 2110
